# maps each entry to its Migration
- Protocol Summary: Partition equilibrium in the presence of surfactants (TBA, CTA, TMA)
- Format: physicochemical
- Experimental Conditions: TMA100 (trimethylammonium chloride 100 mg · L^−1)

{"columns": ["Compound", "Migration"],
 "data": [
  ["O=C(O)CCCCC1CCCCC1 [Cyclohexanepentanoic Acid, cyclohexanepentanoic acid]", "0.0 %, mol"]
]}

(Q) Report Migration for CCCCC(=O)O [Pentanoic Acid, pentanoic acid] please.
(A) 83.2 %, mol

(Q) Now give it for O=C(O)c1ccccc1 [Benzoic Acid, benzoic acid] too.
(A) 63.4 %, mol

(Q) Now give it for O=C(O)CCCCc1ccccc1 [5-Phenylpentanoic Acid, 5-phenylpentanoic acid] too.
(A) 9.4 %, mol
